Test system: HEK-293T
Assay: Multiplex assay against HEK293T
Format: toxicity, cell-based
Settings: human, 48 h, 1 µM, compound concentration 1 uM, replicate 2
Quantity name: Total Cell Count
Numbers only.

Reference set, count: 2
{"Smiles record": "N#Cc1cc(F)cc(-c2nc(-c3ccc(F)cn3)no2)c1", "Study system": "HEK-293T", "Total Cell Count": 715}
{"Smiles record": "CCCCC1=NC2(CCCC2)C(=O)N1Cc1ccc(-c2ccccc2-c2nnn[nH]2)cc1", "Study system": "HEK-293T", "Total Cell Count": 705}

Your task in this section: give Total Cell Count for each listed record.
1. CCc1cc2cc(NS(=O)(=O)c3ccc(C#N)cc3)ccc2n(CC)c1=O
2. Cc1c(CC(=O)O)c2cccnc2n1Cc1ccc(S(C)(=O)=O)cc1C(F)(F)F

a:
608
713

---

Test system: Fibroblast
Assay: Multiplex assay against human fibroblast
Assay type: toxicity, cell-based
Settings: 12 h, 1 µM, compound concentration 1 uM, replicate 1
Returns one of Satisfied or Not satisfied; Satisfied when Population Mitochondria Different-Phenotype (%) is >= 5%.

See these solved cases before continuing.
{"Molecule": "CN1CCN(c2cc(-c3ccccc3)nc(N)n2)CC1", "Cat": "Satisfied"}
{"Molecule": "Cc1noc(-c2ccc(-c3ccc(CC(=O)O)cc3)cc2)c1NC(=O)O[C@H](C)c1ccccc1Cl", "Cat": "Not satisfied"}
{"Molecule": "COC[C@@H](c1ccc(C(F)(F)F)cc1)N1CCN(C2(C)CCN(C(=O)c3c(C)ncnc3C)CC2)C[C@@H]1C.O=C(O)/C=C\\C(=O)O [VICRIVIROC MALEATE]", "Cat": "Satisfied"}
{"Molecule": "CC(C)c1noc(N2CCC(COc3ccc(-c4ccc(S(C)(=O)=O)cc4)nc3)CC2)n1", "Cat": "Not satisfied"}

Below: the item to evaluate.
q: Form field: Population Mitochondria Different-Phenotype (%) at least 5%? Entry: CC(/C=C1\SC(=S)N(CCCC(=O)Nc2ccc(C(=O)O)c(O)c2)C1=O)=C\c1ccccc1
a: Not satisfied

---

Tested on: U2OS
Experiment: Multiplex assay against U2OS
Type: toxicity, cell-based
Settings: human, 48 h, 10 µM, compound concentration 10 uM, replicate 1
Kindly supply the reported Population Tubulin-Different-Phenotype (%) values for the records listed here.
Give bare numbers, in %.

Reference set, count: 4
{"Compound": "Cc1onc(-c2ccccc2Cl)c1C(=O)N(C)c1ccc(Cl)cc1", "Study system": "U2OS", "Measurement": 4}
{"Compound": "O=C(CCCc1ccccc1)Nc1nc2ccccc2c(=O)s1", "Study system": "U2OS", "Measurement": 3}
{"Compound": "COc1ccccc1N1CCN(C[C@@H](C(=O)NC(C)(C)C)c2ccccc2)CC1.Cl.Cl", "Study system": "U2OS", "Measurement": 21}
{"Compound": "N#Cc1c(Oc2cccc(OS(=O)(=O)CCCC(F)(F)F)c2)cccc1C(F)(F)F", "Study system": "U2OS", "Measurement": 6}

Your task in this section: give Population Tubulin-Different-Phenotype (%) for each listed record.
1. Cc1sc2c(c1C)C(c1ccc(Cl)cc1)=N[C@@H](CC(=O)NCCCCCCCCNC(=O)COc1cccc3c1C(=O)N(C1CCC(=O)NC1=O)C3=O)c1nnc(C)n1-2 (some centres undefined)
2. CCc1cc2cc(NS(=O)(=O)c3ccc(C#N)cc3)ccc2n(CC)c1=O
3. Cl.NCCc1ccc(O)c(O)c1 [DOPAMINE HYDROCHLORIDE]
4. COc1cccc2c1c(NS(=O)(=O)c1ccc(Cl)s1)nn2Cc1cccc(CNC(=O)C(C)(C)O)c1
5. Cc1cccc(NC(=O)CN2CCC(c3ccccn3)CC2)c1.Cl.Cl

a:
4
3
5
3
3
